For each of the binders below, state its koff.
- systemUnderTest: T1, MUC1-SEA-His protein (UniProt P15941 1039-1148, limits assumed)
- T1 construct: domain: SEA; Recombinant antigen used for ELISA coating and as Biacore analyte; also called MUC-SEA-His; antigen protein; not shown: His tag
- T1 sequence (looked up): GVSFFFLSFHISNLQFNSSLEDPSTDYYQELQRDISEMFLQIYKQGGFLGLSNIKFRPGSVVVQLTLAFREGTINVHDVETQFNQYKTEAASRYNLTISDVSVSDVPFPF
- protocolText: SPR Biacore T200, antibody captured, antigen as analyte
// return numeric value only (unit: s⁻¹, not printed)

I would be grateful if you could share the reported koff for VH1 + VL1 (antibody, V domains shown, Humanized IgG expressed in HEK293; also called humanized antibody VH1+VL1) VH: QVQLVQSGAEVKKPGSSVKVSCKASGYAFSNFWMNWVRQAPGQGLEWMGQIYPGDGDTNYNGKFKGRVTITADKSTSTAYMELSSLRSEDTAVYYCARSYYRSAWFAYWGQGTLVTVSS VL: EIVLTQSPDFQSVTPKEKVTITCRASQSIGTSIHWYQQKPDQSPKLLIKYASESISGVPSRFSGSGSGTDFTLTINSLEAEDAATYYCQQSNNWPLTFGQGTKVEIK .
0.0021

// koff lookup, key: VH2 + VL2 (antibody, V domains shown, Humanized IgG expressed in HEK293; also called humanized antibody VH2+VL2) VH: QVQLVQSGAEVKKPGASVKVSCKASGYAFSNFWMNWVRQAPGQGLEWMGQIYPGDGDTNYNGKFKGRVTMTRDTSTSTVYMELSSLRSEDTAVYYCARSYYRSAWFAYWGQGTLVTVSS VL: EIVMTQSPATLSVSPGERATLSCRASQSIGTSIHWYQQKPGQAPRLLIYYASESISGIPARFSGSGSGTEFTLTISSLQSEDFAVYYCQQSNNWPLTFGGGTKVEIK
0.0166

Which value of koff has been reported for VH4 + VL1 (antibody, V domains shown, Humanized IgG expressed in HEK293; also called humanized antibody VH4+VL1) VH: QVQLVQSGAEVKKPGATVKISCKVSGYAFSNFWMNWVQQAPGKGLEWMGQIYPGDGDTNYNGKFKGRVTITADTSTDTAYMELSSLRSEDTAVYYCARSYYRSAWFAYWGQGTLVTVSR VL: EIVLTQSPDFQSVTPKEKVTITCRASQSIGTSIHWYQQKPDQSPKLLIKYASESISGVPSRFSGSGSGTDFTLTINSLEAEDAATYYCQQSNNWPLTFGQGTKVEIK in the records?
0.00261
